Provide the reported MIC of each item.
Test system: Botrytis cinerea
measurementProtocol: Fungicidal activity in vitro: mycelial growth on Cristomalt agar
Type: cell-based
conditionParameters: Botrytis cinerea; BC; min-max range of several experiments; 22° C.; read-out: MIC (content giving complete inhibition of mycelial growth)
Experimental: The Cristomalt medium used for the evaluations of the fungicidal activities comprises 0.1% of Cristomalt (malt extract) and 0.2% of agar. This culture medium is, after sterilization, brought to 55° C. The terpene compound tested is then introduced in the pure form into the culture medium under warm conditions. […] The mycelial growth was determined periodically (5 to 15 days, according to the species of fungus). […]

Name the recorded MIC of CC=Cc1ccc(O)c(OC)c1 [ISOEUGENOL, isoeugenol] , assay system Botrytis cinerea.
20 to 40 µg/mL

System Botrytis cinerea. Read-out MIC. Item CC12CCC(CC1)C(C)(C)O2 [EUCALYPTOL, eucalyptol] . Report value.
640 to 1280 µg/mL

Specify the recorded MIC for C=C(C)C1CC=C(C)C(=O)C1 (stereo not shown) [CARVONE, carvone] , system: Botrytis cinerea.
20 to 40 µg/mL

Provide Botrytis cinerea MIC reading for C=CCc1ccc(O)c(OC)c1 [EUGENOL, eugenol] .
20 to 40 µg/mL

* * *

Test system: Penicillium digitatum
measurementProtocol: Fungicidal activity in vitro: mycelial growth on Cristomalt agar
Format: cell-based
conditionParameters: PD; MIC expressed on the scale of Table 2
I'd be grateful if you could share measured Inhibition grades for these entries.

Read off the recorded Inhibition grades for CC=Cc1ccc(O)c(OC)c1
7 (20-40)

Give me measured Inhibition grades, please, for this compound: C=CCc1ccc(O)c(OC)c1
7 (20-40)

Given C=C(C)C1CC=C(C)C(=O)C1 (centres unmarked) , respond with its Inhibition grades.
6 (40-80)

Find the measured Inhibition grades of C=CCc1ccc2c(c1)OCO2 and report it.
4 (160-320)

Indicate the recorded Inhibition grades value for this compound: CC12CCC(CC1)C(C)(C)O2
1 (>1280)

* * *

Test system: Phlyctaena vagabonda (“Gloeosporium”)
measurementProtocol: Fungicidal activity in vitro: mycelial growth on Cristomalt agar
Format: cell-based
conditionParameters: PV; MIC expressed on the scale of Table 2
measuredEndpoint: Inhibition grades

Report Inhibition grades for CC12CCC(CC1)C(C)(C)O2
4 (160-320)

Return Inhibition grades for the following molecule: C=C(C)C1CC=C(C)C(=O)C1 (centres unmarked)
5 (80-160)

State, in one line, measured Inhibition grades of CC=Cc1ccc(O)c(OC)c1
7 (20-40)

Annotate the molecule C=CCc1ccc(O)c(OC)c1 with its measured Inhibition grades.
6 (40-80)

Please give the documented Inhibition grades of C=CCc1ccc2c(c1)OCO2
5 (80-160)

* * *

Test system: Penicillium digitatum
measurementProtocol: Germination of the spores in vitro
Type: cell-based
conditionParameters: PD; x = 40 μg/ml
measuredEndpoint: germination of the spores

Enter recorded germination of the spores with Penicillium digitatum for C=C(C)C1CC=C(C)C(=O)C1 (stereo not drawn) here.
+

GET germination of the spores where system = Penicillium digitatum and item = C=CCc1ccc2c(c1)OCO2
+

Give reported germination of the spores for CC12CCC(CC1)C(C)(C)O2 (Penicillium digitatum)
+
